- Subject Of Test: Dipeptidyl peptidase 4 (Homo sapiens) (UniProt P27487)
- Sequence (P27487 whole entry, looked up): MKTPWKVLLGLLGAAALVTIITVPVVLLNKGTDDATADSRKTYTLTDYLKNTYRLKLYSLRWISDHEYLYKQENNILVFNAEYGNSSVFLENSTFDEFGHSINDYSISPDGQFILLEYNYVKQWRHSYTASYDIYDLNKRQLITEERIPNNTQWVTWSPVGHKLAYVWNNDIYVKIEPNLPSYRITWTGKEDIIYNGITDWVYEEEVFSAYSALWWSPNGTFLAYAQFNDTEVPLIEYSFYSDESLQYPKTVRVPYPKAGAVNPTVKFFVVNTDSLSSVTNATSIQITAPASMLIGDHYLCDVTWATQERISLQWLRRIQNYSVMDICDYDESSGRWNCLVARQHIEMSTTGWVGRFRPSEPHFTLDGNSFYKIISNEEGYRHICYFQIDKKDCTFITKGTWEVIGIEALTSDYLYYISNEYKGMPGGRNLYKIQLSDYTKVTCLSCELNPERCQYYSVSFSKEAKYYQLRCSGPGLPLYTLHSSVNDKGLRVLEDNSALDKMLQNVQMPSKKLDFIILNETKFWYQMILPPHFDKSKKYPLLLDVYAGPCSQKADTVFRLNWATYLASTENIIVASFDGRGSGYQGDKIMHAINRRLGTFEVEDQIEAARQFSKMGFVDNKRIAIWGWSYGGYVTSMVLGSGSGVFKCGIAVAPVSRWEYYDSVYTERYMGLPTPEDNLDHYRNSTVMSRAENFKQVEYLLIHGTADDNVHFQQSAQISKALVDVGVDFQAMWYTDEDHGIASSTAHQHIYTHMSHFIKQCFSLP
- Assay Name: Inhibition of DPP4 in human brain derived endothelial cell extracts assessed as blockade of Gly-Pro-AMC substrate hydrolysis at 100 uM by fluorimetric assay
- Type: cell-free
Activity calls are given as the source filed them. No cut-off for these calls is given here.
Measured Attribute: inhibition

Recorded inhibition for N#C[C@@H]1CS[C@H]2C[C@@H](NC(=O)OCc3ccccc3)C(=O)N12 on Dipeptidyl peptidase 4 (Homo sapiens) (UniProt P27487) was inactive

Recorded inhibition for COC(=O)[C@@H]1CS[C@H]2C[C@@H](NC(=O)OCc3ccccc3)C(=O)N21 on Dipeptidyl peptidase 4 (Homo sapiens) (UniProt P27487) was inactive

Recorded inhibition for N#C[C@@H]1CCCN1C(=O)OCc1ccccc1 on Dipeptidyl peptidase 4 (Homo sapiens) (UniProt P27487) was inactive

----------
- Subject Of Test: Prolyl endopeptidase (Homo sapiens, UniProt P48147)
- Sequence (P48147 whole entry): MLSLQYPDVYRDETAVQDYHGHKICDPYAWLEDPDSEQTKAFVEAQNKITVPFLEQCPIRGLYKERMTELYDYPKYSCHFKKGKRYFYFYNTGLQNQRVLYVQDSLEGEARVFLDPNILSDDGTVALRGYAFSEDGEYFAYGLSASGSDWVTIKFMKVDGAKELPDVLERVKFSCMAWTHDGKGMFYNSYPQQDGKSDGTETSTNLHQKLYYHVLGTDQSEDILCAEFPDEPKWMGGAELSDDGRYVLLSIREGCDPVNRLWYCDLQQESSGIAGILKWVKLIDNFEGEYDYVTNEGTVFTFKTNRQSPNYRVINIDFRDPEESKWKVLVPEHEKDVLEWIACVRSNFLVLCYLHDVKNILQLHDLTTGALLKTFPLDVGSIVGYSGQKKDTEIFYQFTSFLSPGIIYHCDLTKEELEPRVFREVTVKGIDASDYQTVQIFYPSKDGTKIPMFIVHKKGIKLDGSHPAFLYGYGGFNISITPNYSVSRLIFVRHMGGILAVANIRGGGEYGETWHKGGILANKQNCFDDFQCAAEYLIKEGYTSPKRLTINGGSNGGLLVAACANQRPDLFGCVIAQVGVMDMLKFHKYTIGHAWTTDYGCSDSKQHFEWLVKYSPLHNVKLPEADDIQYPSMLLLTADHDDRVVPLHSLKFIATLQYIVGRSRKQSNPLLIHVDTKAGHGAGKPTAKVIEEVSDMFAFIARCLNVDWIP
- Assay Name: Inhibition of prolyl oligopeptidase in intact human LNZ308 cells assessed as blockade of Z-Gly-Pro-AMC substrate hydrolysis by fluorimetric assay
- Type: cell-based
Measured Attribute: IC50 (µM)
// units = µM; emit number, no label

# IC50 of N#C[C@@H]1CS[C@H]2C[C@@H](NC(=O)OCc3ccccc3)C(=O)N12 = 2.5

----------
- Subject Of Test: Prolyl endopeptidase (Homo sapiens)
- Assay Name: Inhibition of prolyl oligopeptidase in human HCEC cell extracts assessed as blockade of Z-Gly-Pro-AMC substrate hydrolysis by fluorimetric assay
- Assay type: cell-free
Measured Attribute: IC50

# IC50 of N#C[C@@H]1CS[C@H]2C[C@@H](NC(=O)OCc3ccccc3)C(=O)N12 = 0.7 µM

----------
- Subject Of Test: UniProt P48147
- Assay Name: Inhibition of prolyl oligopeptidase in human LN229 cell extracts assessed as blockade of Z-Gly-Pro-AMC substrate hydrolysis by fluorimetric assay
Measured Attribute: IC50 (nM)
// units = nM; emit number, no label

# IC50 of N#C[C@@H]1CS[C@H]2C[C@@H](NC(=O)OCc3ccccc3)C(=O)N12 = 500

----------
- Subject Of Test: Prolyl endopeptidase (Homo sapiens)
- Assay Name: Inhibition of prolyl oligopeptidase in human fibroblast extracts assessed as blockade of Z-Gly-Pro-AMC substrate hydrolysis at 100 uM by fluorimetric assay
Active and inactive are the calls of the source. No cut-off for these calls is given here.
Measured Attribute: inhibition

Recorded inhibition, per entry:
# inhibition of N#C[C@@H]1CO[C@H]2C[C@H](NC(=O)OCc3ccccc3)C(=O)N12 = 10%

# inhibition of COC(=O)[C@@H]1CS[C@H]2C[C@H](NC(=O)OCc3ccccc3)C(=O)N21 = 10%

# inhibition of N#C[C@H]1CS[C@@H]2C[C@@H](NC(=O)OCc3ccccc3)C(=O)N12 = 10%

# inhibition of N#C[C@H]1CS[C@@H]2C[C@H](NC(=O)OCc3ccccc3)C(=O)N12 = inactive

# inhibition of N#C[C@@H]1CO[C@H]2C[C@@H](NC(=O)OCc3ccccc3)C(=O)N12 = 10%

# inhibition of C[C@H]1O[C@H]2C[C@H](NC(=O)OCc3ccccc3)C(=O)N2[C@@H]1C#N = inactive

# inhibition of COC(=O)[C@@H]1CS[C@H]2C[C@@H](NC(=O)OCc3ccccc3)C(=O)N21 = 10%

# inhibition of N#C[C@@H]1CCCN1 = inactive

Further cases:
# inhibition of C[C@H]1O[C@H]2C[C@@H](NC(=O)OCc3ccccc3)C(=O)N2[C@@H]1C#N = inactive

# inhibition of CC(C)(C)OC(=O)N1CCC[C@H]1C#N = inactive

# inhibition of N#C[C@@H]1CS[C@H]2C[C@H](NC(=O)OCc3ccccc3)C(=O)N12 = 10%

# inhibition of NC(=O)[C@@H]1CS[C@H]2C[C@H](NC(=O)OCc3ccccc3)C(=O)N21 = inactive

# inhibition of N#C[C@@H]1CS[C@H]2CC[C@@H](NC(=O)OCc3ccccc3)C(=O)N12 = > 50%

----------
- Subject Of Test: UniProt:P27487
- Assay Name: Inhibition of DPP4 in human brain derived endothelial cell extracts assessed as blockade of Gly-Pro-AMC substrate hydrolysis at 100 uM by fluorimetric assay
- Type: cell-free
Calls of active or inactive are those of the source. The calls are words filed in the database; no cut-off is given here.
Measured Attribute: inhibition

# inhibition of C[C@H]1O[C@H]2C[C@@H](NC(=O)OCc3ccccc3)C(=O)N2[C@@H]1C#N = inactive

# inhibition of N#C[C@@H]1CO[C@H]2C[C@H](NC(=O)OCc3ccccc3)C(=O)N12 = inactive

# inhibition of NC(=O)[C@@H]1CS[C@H]2C[C@@H](NC(=O)OCc3ccccc3)C(=O)N21 = inactive

# inhibition of N#C[C@H]1CCCN1C(=O)CNC(=O)OCc1ccccc1 = inactive

# inhibition of N#CC1CCSC2CC(NC(=O)OCc3ccccc3)C(=O)N12 (racemic) = inactive

Further cases:
# inhibition of C[C@H]1O[C@H]2C[C@H](NC(=O)OCc3ccccc3)C(=O)N2[C@@H]1C#N = inactive

# inhibition of N#CC1CCCCN1C(=O)CNC(=O)OCc1ccccc1 (racemic) = inactive

# inhibition of NC(=O)[C@@H]1CS[C@H]2C[C@H](NC(=O)OCc3ccccc3)C(=O)N21 = inactive

# inhibition of N#C[C@@H]1CCCN1 = inactive

# inhibition of COC(=O)[C@@H]1CS[C@H]2C[C@H](NC(=O)OCc3ccccc3)C(=O)N21 = inactive

----------
- Subject Of Test: Prolyl endopeptidase (Homo sapiens)
- Assay Name: Inhibition of prolyl oligopeptidase in human astrocyte derived cell extracts assessed as blockade of Z-Gly-Pro-AMC substrate hydrolysis at 100 uM by fluorimetric assay
The source made the active and inactive calls. The rule behind the calls is not given here.
Measured Attribute: inhibition

# inhibition of N#C[C@@H]1CS[C@H]2CC[C@H](NC(=O)OCc3ccccc3)C(=O)N12 = > 50%

# inhibition of COC(=O)[C@@H]1CS[C@H]2C[C@@H](NC(=O)OCc3ccccc3)C(=O)N21 = inactive

# inhibition of N#C[C@@H]1CS[C@H]2C[C@H](NC(=O)OCc3ccccc3)C(=O)N12 = 10%

# inhibition of N#C[C@@H]1CO[C@H]2C[C@@H](NC(=O)OCc3ccccc3)C(=O)N12 = inactive

# inhibition of N#C[C@@H]1CCCN1 = inactive

# inhibition of NC(=O)[C@@H]1CS[C@H]2C[C@@H](NC(=O)OCc3ccccc3)C(=O)N21 = inactive

# inhibition of COC(=O)[C@@H]1CS[C@H]2C[C@H](NC(=O)OCc3ccccc3)C(=O)N21 = 10%

# inhibition of C[C@H]1O[C@H]2C[C@H](NC(=O)OCc3ccccc3)C(=O)N2[C@@H]1C#N = 10%

# inhibition of N#C[C@@H]1CS[C@H]2CC[C@@H](NC(=O)OCc3ccccc3)C(=O)N12 = > 50%

# inhibition of NC(=O)[C@@H]1CS[C@H]2C[C@H](NC(=O)OCc3ccccc3)C(=O)N21 = inactive

Further cases:
# inhibition of N#CC1CCSC2CC(NC(=O)OCc3ccccc3)C(=O)N12 (racemic) = inactive

# inhibition of N#C[C@H]1CS[C@@H]2C[C@@H](NC(=O)OCc3ccccc3)C(=O)N12 = 10%

# inhibition of N#C[C@@H]1CCCN1C(=O)OCc1ccccc1 = inactive

# inhibition of C[C@H]1O[C@H]2C[C@@H](NC(=O)OCc3ccccc3)C(=O)N2[C@@H]1C#N = 10%

# inhibition of N#CC1CCCCN1C(=O)CNC(=O)OCc1ccccc1 (racemic) = > 50%

# inhibition of N#C[C@H]1CS[C@@H]2C[C@H](NC(=O)OCc3ccccc3)C(=O)N12 = 10%

# inhibition of CC(C)(C)OC(=O)N1CCC[C@H]1C#N = inactive

# inhibition of N#C[C@@H]1CO[C@H]2C[C@H](NC(=O)OCc3ccccc3)C(=O)N12 = inactive

----------
- Subject Of Test: Prolyl endopeptidase (Homo sapiens) (UniProt P48147)
- Assay Name: Inhibition of prolyl oligopeptidase in human brain derived endothelial cell extracts assessed as blockade of Z-Gly-Pro-AMC substrate hydrolysis at 100 uM by fluorimetric assay
- Format: cell-free
Calls of active or inactive are those of the source. The rule behind the calls is not given here.
Measured Attribute: inhibition

Recorded inhibition, per entry:
# inhibition of N#CC1CCSC2CC(NC(=O)OCc3ccccc3)C(=O)N12 (racemic) = inactive

# inhibition of N#C[C@@H]1CCCN1 = inactive

# inhibition of N#C[C@@H]1CO[C@H]2C[C@H](NC(=O)OCc3ccccc3)C(=O)N12 = inactive

# inhibition of C[C@H]1O[C@H]2C[C@@H](NC(=O)OCc3ccccc3)C(=O)N2[C@@H]1C#N = 10%

# inhibition of NC(=O)[C@@H]1CS[C@H]2C[C@@H](NC(=O)OCc3ccccc3)C(=O)N21 = inactive

Further cases:
# inhibition of COC(=O)[C@@H]1CS[C@H]2C[C@H](NC(=O)OCc3ccccc3)C(=O)N21 = inactive

# inhibition of N#C[C@@H]1CCCN1C(=O)OCc1ccccc1 = 10%

# inhibition of N#C[C@@H]1CO[C@H]2C[C@@H](NC(=O)OCc3ccccc3)C(=O)N12 = inactive

# inhibition of N#CC1CCCCN1C(=O)CNC(=O)OCc1ccccc1 (racemic) = 10%

# inhibition of COC(=O)[C@@H]1CS[C@H]2C[C@@H](NC(=O)OCc3ccccc3)C(=O)N21 = inactive

# inhibition of CC(C)(C)OC(=O)N1CCC[C@H]1C#N = inactive

# inhibition of N#C[C@@H]1CS[C@H]2CC[C@H](NC(=O)OCc3ccccc3)C(=O)N12 = > 50%
